Target: T1, hIL-18BP-hFc (human, UniProt O95998 31-194, limits assumed)
T1 sequence (looked up): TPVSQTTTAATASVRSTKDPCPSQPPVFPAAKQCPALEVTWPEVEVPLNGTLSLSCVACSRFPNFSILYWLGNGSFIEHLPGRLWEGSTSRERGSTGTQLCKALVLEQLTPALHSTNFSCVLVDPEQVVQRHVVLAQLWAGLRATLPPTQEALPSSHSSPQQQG
Assay: cell-based or functional assay
For each record, check the reported EC50 (nM) in the Presence of 1 µg/mL hIL-18BP-hFc, hIL-18 reporter assay: if it is below 0.2 nM write rule met, else write rule not met.

Binder: IL-18 variant polypeptide M24 (ligand) YFPKLRSKLSVIRNLNDQVLFIDQGNRPLFEDMTDSDCRDNAPRTIFIISMYKYSTSRGMAVTISVKCEKISTLSCENKIISFKEMNPPDNIKDTKSDIIFFQRSVPGHDNKMQFESSSYEGYFLACEKERDLFKLILKKEDELGDRSIMFTVQNED
Discrete Label: rule not met
//
Binder: IL-18 variant polypeptide M12 (ligand) YFPKLKSKLSVIRNLNDQVLFIDQGNRPLFEDMTDSDCRDNAPRTIFIISMYKGSGARGMAVTISVKCEKISTLSCENKIISFKEMNPPDTIKDTKSDIIFFQRSVPGHDNKMQFESSSYEGYFLACEKERDLFKLILKKEDELGDRSIMFTVQNED
Discrete Label: rule met
//
Binder: IL-18 variant polypeptide M40 (ligand) YFDKLKSKLSVIRNLNDQVLFIDQGNRPLFEDMTDSDCRDNAPRTIFIISMYKPSSWRGMAVTISVKCEKISTLSCENKIISFKEMNPPDWIKDTKSDIIFFQRSVPGHDNKMQFESSSYEGYFLACEKERDLFKLILKKEDELGDRSIMFTVQNED
Discrete Label: rule met
//
Binder: IL-18 variant polypeptide M27 (ligand) YFPKLRSKLSVIRNLNDQVLFIDQGNRPLFEDMTDSDCRDNAPRTIFIISMYKHSYTRGMAVTISVKCEKISTLSCENKIISFKEMNPPDVIKDTKSDIIFFQYSVPGHDNKMQFESSSYEGYFLACEKERDLFKLILKKEDELGDRSIMFTVQNED
Discrete Label: rule not met
//
Binder: IL-18 variant polypeptide M23 (ligand) YFPKLRSKLSVIRNLNDQVLFIDQGNRPLFEDMTDSDCRDNAPRTIFIISMYKYSTRRGMAVTISVKCEKISTLSCENKIISFKEMNPPDNIKDTKSDIIFFQRSVPGHDNKMQFESSSYEGYFLACEKERDLFKLILKKEDELGDRSIMFTVQNED
Discrete Label: rule not met
//
Binder: IL-18 variant polypeptide M3 (ligand) YFPKLKSKLSVIRNLNDQVLFIDQGNRPLFEDMTDSDCRDNAPRTIFIISMYKWSHVRGMAVTISVKCEKISTLSCENKIISFKEMNPPDAIKDTKSDIIFFQYSVPGHDNKMQFESSSYEGYFLACEKERDLFKLILKKEDELGDRSIMFTVQNED
Discrete Label: rule not met
//
Binder: IL-18 variant polypeptide M31 (ligand) YFPKLRSKLSVIRNLNDQVLFIDQGNRPLFEDMTDSDCRDNAPRTIFIISMYKHSIHRGMAVTISVKCEKISTLSCENKIISFKEMNPPDIIKDTKSDIIFFQYSVPGHDNKMQFESSSYEGYFLACEKERDLFKLILKKEDELGDRSIMFTVQNED
Discrete Label: rule met
//
Binder: IL-18 variant polypeptide MM5 (ligand) YFGKLGSKLSVIRNLNDQVLFIDQGNRPLFEDMTDSDCRDNAPRTIFIISMYKLSTERGMAVTISVKCEKISTLSCENKIISFKEMNPPDGIKDTKSDIIFFQSSVPGHDNKMQFESSSYEGYFLACEKERDLFKLILKKEDELGDRSIMFTVQNED
Discrete Label: rule met
